System: Staphylococcus aureus NCTC 8325
Please go through the items and note down their MIC.

1) CC[C@H](C)[C@H](NC(=O)CNC(=O)[C@H](CO)NC(=O)[C@H](CC(C)C)NC(=O)[C@H](CC(C)C)NC(=O)CN)C(=O)N[C@@H](CC(C)C)C(=O)NCC(=O)N[C@@H](C)C(=O)NCC(=O)N[C@@H](CCCCN)C(=O)N[C@@H](CC(N)=O)C(=O)N[C@H](C(=O)N[C@H](C(=O)N[C@H]1CSSC[C@@H](C(=O)O)NC(=O)[C@H](CC(C)C)NC(=O)CNC(=O)[C@H](CO)NC(=O)[C@H](CC(C)C)NC(=O)CNC1=O)C(C)C)[C@@H](C)CC [GLLSGILGAGKNIVCGLSGLC] : ≥ 100 µM
2) CC(C)C[C@H](NC(=O)[C@@H](NC(=O)[C@H](CCCCN)NC(=O)[C@H](CO)NC(=O)[C@H](CC(C)C)NC(=O)[C@H](CC(C)C)NC(=O)[C@@H](NC(=O)[C@H](C)NC(=O)[C@H](CC(C)C)NC(=O)[C@H](Cc1ccccc1)NC(=O)[C@@H]1CCCN1C(=O)[C@H](CC(C)C)NC(=O)[C@@H](N)Cc1ccccc1)[C@@H](C)O)C(C)C)C(N)=O [FLPFLATLLSKVL] : ≥ 100 µM

Entry under review: CC(C)C[C@H](NC(=O)[C@H](C)NC(=O)[C@H](CCCCN)NC(=O)[C@H](C)NC(=O)[C@H](C)NC(=O)CNC(=O)[C@H](CCCCN)NC(=O)[C@H](CC(C)C)NC(=O)[C@H](CC(C)C)NC(=O)[C@H](CC(=O)O)NC(=O)[C@H](CCCCN)NC(=O)[C@H](Cc1ccccc1)NC(=O)CN)C(=O)N[C@H](C(=O)N[C@@H](CCCCN)C(=O)N[C@H](C(=O)N[C@H](C(=O)N[C@@H](CC(C)C)C(=O)N[C@@H](Cc1ccccc1)C(=O)O)C(C)C)[C@@H](C)O)C(C)C [GFKDLLKGAAKALVKTVLF] . Reported MIC? ≥ 50 µM
